- Tested on: HCV replicon
- assay.remarks: microbe, parasite or virus in culture
- Type: cell-based
- assay.conditions: Hepatitis C virus, 48 h, read-out: Replicon IC5Os
The following compounds are shown together with reported IC50 values.

>  <given.smiles>
CCOC(=O)Nc1ccc(-c2c(C#N)c3ccc(OC)cc3n2CCOC)cc1

>  <IC50>
500 to 2000 nM

$$$$
>  <given.smiles>
CCn1c(-c2ccc(S(=O)(=O)NC)cc2)c(C#N)c2cc(-c3cccc(OC)c3)ccc21

>  <IC50>
< 500 nM

$$$$
>  <given.smiles>
CCOC(=O)Nc1cccc(-c2c(C#N)c3ccc(OC)cc3n2CC)c1

>  <IC50>
< 500 nM

$$$$
>  <given.smiles>
COC(=O)Nc1cccc(-c2c(C#N)c3ccc(OC(F)F)cc3n2CC2CC2)c1

>  <IC50>
< 500 nM

$$$$
>  <given.smiles>
CCOC(=O)Nc1cccc(-c2c(C#N)c3ccc(OCCCN(C)CCOC)cc3n2CC)c1

>  <IC50>
500 to 2000 nM

$$$$

All values here come from patent US8013006B2.
